Tested on: FLT4
details: concentration: 1 μM, replicates: in singlicate; n = 1
Decision: %Inh compared against 9%; not below it gives 1, below it gives 0.

molecule="COc1cc(Nc2nccc(N3CCC(NC(=O)C4COc5ccccc5O4)C3)n2)cc(OC)c1OC (stereo not drawn) [GSK1379761]" subjectoftest=FLT4 label=1
molecule="Nc1nc(-c2ccccc2F)c(-c2ccnc3ccccc23)s1 [GW560459]" subjectoftest=FLT4 label=0
molecule=CCc1nc(-c2cccc(C)c2)c(-c2ccncc2)s1 subjectoftest=FLT4 label=0
molecule="COc1ccc(Nc2nccc(N3CCC(NS(=O)(=O)c4ccc(NC(C)=O)cc4)C3)n2)cc1 (stereo not drawn) [GSK1379729]" subjectoftest=FLT4 label=1

q: Please check the record Cc1ccccc1COc1cc(-n2cnc3cc(Cl)ccc32)sc1C(N)=O [GW813349] and state if its %Inh is at or above 9%.
a: 1

q: Please check the record Cc1nn2c(=O)cc(N3CCOCC3)nc2n1Cc1cccc(Cl)c1Cl [GSK2342769] and state if its %Inh is at or above 9%.
a: 1

q: Please check the record O=C(NCc1cccs1)c1cc(C(=O)c2c(Cl)cccc2Cl)c[nH]1 [GW823670] and state if its %Inh is at or above 9%.
a: 0

====

Can you tell me pKd for the items I'm about to list?
System: MEK5;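 also: kd values determined as follow-up on hits from a single-replicate KINOMEscan panel screen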
Construct: gene MAP2K5
Answers are plain numbers, as −log10 of the molar value.

Use the examples below as a reference point.
compound=COc1cccc(-n2cnc3c(N)ncnc32)c1 measuredvalue=5.89
compound="COc1cc(Nc2nccc(N3CCC(NC(=O)C4COc5ccccc5O4)C3)n2)cc(OC)c1OC (stereo not shown)" measuredvalue=6.74
compound=COc1cc2ncn(-c3cc(OCc4ccncc4Br)c(C(N)=O)s3)c2cc1OC measuredvalue=7.11

Now for the compound whose pKd we want.
q: Value wanted: pKd (MEK5) of entry COc1cc2ncn(-c3cc(OCc4ccc(S(C)(=O)=O)cc4)c(C(N)=O)s3)c2cc1OC
a: 6.33

====

Can you tell me %Inh for the items I'm about to list?
Test system: CLK3
details: concentration: 1 μM, replicates: in singlicate; n = 1

molecule="C[C@@H]1CC[C@H](C(=O)NC2CCCCC2)CN1c1cc(-c2ccc3c(N)n[nH]c3c2)nc(N)n1 [GSK2291363]" subjectoftest=CLK3 measuredvalue=16%
molecule="CCCC(=O)Nc1n[nH]c2ncc(-c3cccc4ccccc34)cc12 [SB-642057]" subjectoftest=CLK3 measuredvalue=0%
molecule="CN1C(=O)C(Nc2cc(Cl)c(O)c(Cl)c2)=C(c2ccc(Cl)cc2)C1=O [SB-404321]" subjectoftest=CLK3 measuredvalue=0%
molecule=Cc1ccc(-c2ccc3c(ccc4sc5c(c43)NC[C@@H](C)N=C5N(C)C)n2)cn1 subjectoftest=CLK3 measuredvalue=0%
molecule="COc1cc2ncn(-c3cc(OCCCc4ccccc4)c(C(N)=O)s3)c2cc1OC [GSK205189]" subjectoftest=CLK3 measuredvalue=0%

For every listed record, write down its %Inh.
1. COC(=O)c1c(-c2ccccc2)c2cc(C)ccc2c(=O)n1Cc1ccccc1
2. COc1cc2ncn(-c3cc(OCc4ccc(S(C)(=O)=O)cc4)c(C(N)=O)s3)c2cc1OC [GW869979]
3. Cn1c(=O)c(F)c(Nc2ccc(I)cc2F)c2c(=O)n(OC[C@H](O)CO)cnc21

a:
0%
0%
17%
